Test system: AM-38 (Glioblastoma)
experimental.details: combination Emax (second highest fraction inhibited in the dose matrix, 72 h); higher = more inhibition; extreme values may be limits of the assay
// reported combination Emax per item
Could you respond with only the numeric value?

Sample CC1(C)CCC(CN2CCN(c3ccc(C(=O)NS(=O)(=O)c4ccc(NCC5CCOCC5)c([N+](=O)[O-])c4)c(Oc4cnc5[nH]ccc5c4)c3)CC2)=C(c2ccc(Cl)cc2)C1 [Venetoclax] + C[C@@H](Nc1cc(F)cc(F)c1)c1cc(C(=O)N(C)C)cc2c(=O)cc(N3CCOCC3)oc12 [AZD8186] (first compound max 1 µM, 7x7, partner max 3 µM) — what was its combination Emax?
0.157

Give its combination Emax value. Item: CS(=O)(=O)CCNCc1ccc(-c2ccc3ncnc(Nc4ccc(OCc5cccc(F)c5)c(Cl)c4)c3c2)o1 [Lapatinib] + C[C@@H](Oc1cc(-c2cnn(C3CCNCC3)c2)cnc1N)c1c(Cl)ccc(F)c1Cl [Crizotinib] (first compound max 10 µM, 7x7, partner max 10 µM)
0.91
